- Test system: Plasmodium falciparum NF54 asexual blood stage
- Protocol: % inhibition of asexual blood stage proliferation (pLDH); higher = more inhibition
- Setup conditions: 20 µM; 72 h
Please provide measured % inhibition of asexual blood stage proliferation for the entries that follow.
Number only, in %; omit the unit.

Enquiry: Could you share which % inhibition of asexual blood stage proliferation value was measured for O=[N+]([O-])c1ccc2c(CCc3c[nH]c4ccccc34)c[nH]c2c1 ?
Return: 92.7

Enquiry: Could you share which % inhibition of asexual blood stage proliferation value was measured for O=S(=O)(NCB(O)O)c1ccc(-c2nnn[nH]2)cc1C(F)(F)F ?
Return: 28.6

Enquiry: Could you share which % inhibition of asexual blood stage proliferation value was measured for Fc1ccc(-c2nc(-c3c[nH]c4ccc(Br)cc34)[nH]c2-c2ccc(F)cc2)cc1 ?
Return: 83.7

Enquiry: Could you share which % inhibition of asexual blood stage proliferation value was measured for CSc1ccc2c(c1)C(N1CCN(C)CC1)Cc1ccccc1S2 (stereo not given) ?
Return: 73.7

Enquiry: Could you share which % inhibition of asexual blood stage proliferation value was measured for CCN(CC)CCn1c(=N)n(CC(O)COc2ccc(Cl)cc2Cl)c2ccccc21 (stereo not given) ?
Return: 101

* * *

- Tested on: Plasmodium falciparum NF54 asexual blood stage
- Protocol: % inhibition of asexual blood stage proliferation (pLDH); higher = more inhibition
- Setup conditions: 20 µM; 72 h
Reported % inhibition of asexual blood stage proliferation maps to class as: bottom bin = under 30%, middle bin = from 30% up to 60%, top bin = 60% and over

Enquiry: Into which category would you place COC(=O)Nc1nc2c(C)cccc2[nH]1 ?
Return: bottom bin

Enquiry: Into which category would you place O=C(/C=C/n1cnc(-c2cc(C(F)(F)F)cc(C(F)(F)F)c2)n1)NNc1cnccn1 ?
Return: middle bin

Enquiry: Into which category would you place Clc1cc(Cl)c2c(c1)CCc1ccccc1C2n1ccnc1 (stereo not given) ?
Return: top bin

Enquiry: Into which category would you place Cn1cncc1[C@@](N)(c1ccc(Cl)cc1)c1ccc2c(c1)c(-c1cccc(Cl)c1)cc(=O)n2C ?
Return: top bin

Enquiry: Into which category would you place O=C(c1cc(O)nc2ccccc12)N1CCN(c2ccccc2)CC1 ?
Return: middle bin

Enquiry: Into which category would you place Cc1nc(-c2ccc(C3N(C)c4ccc(F)cc4C(=O)N3c3ccccc3)s2)cs1 (stereo not given) ?
Return: top bin

Enquiry: Into which category would you place O=S(=O)(Nc1ccccc1)c1ccc(NC(=S)Nc2ccccc2)cc1 ?
Return: middle bin

Enquiry: Into which category would you place Cc1c(N)cccc1Cn1ccc(OCCc2cccs2)cc1=O ?
Return: bottom bin

Enquiry: Into which category would you place CCOc1noc2cc(OCCC3CCN(c4ccc(C)nn4)CC3)ccc12 ?
Return: top bin

Enquiry: Into which category would you place CCc1ccc(C2CC(C(F)(F)F)n3ncc(C(=O)NCc4ccc(OC)cc4)c3N2)cc1 (stereo not given) ?
Return: top bin

Enquiry: Into which category would you place COc1cc(NC(=O)CN2C(=O)NC(c3ccccc3)(c3ccccc3)C2=O)cc(OC)c1 ?
Return: bottom bin

Enquiry: Into which category would you place O=C(NCc1ncc(C(F)(F)F)cc1Cl)c1c(Cl)cccc1Cl ?
Return: bottom bin

Enquiry: Into which category would you place C[C@@H](c1nc(-c2ccc(C#N)cc2)cs1)[C@](O)(Cn1cncn1)c1ccc(F)cc1F ?
Return: middle bin

Enquiry: Into which category would you place COc1ccc2c(c1)cc(CNC(=O)c1cc3ccccc3o1)n2CC(=O)O ?
Return: bottom bin

Enquiry: Into which category would you place COc1c(F)c(F)cc2c(=O)c(C(=O)O)cn(C3CC3)c12 ?
Return: middle bin

Enquiry: Into which category would you place CCN(CC)S(=O)(=O)c1ccc(Cl)c(C(=O)Nc2sc3c(c2C#N)CCCC3)c1 ?
Return: bottom bin

Enquiry: Into which category would you place Clc1cccc(-c2nnc(-c3ccccc3)o2)c1 ?
Return: bottom bin

Enquiry: Into which category would you place CCCCc1ccc(S(=O)(=O)Nc2cc(C)on2)cc1 ?
Return: top bin

Enquiry: Into which category would you place Cc1cc(-c2ccccc2)c(C(=O)C(=O)Nc2ccc(N3CCN(c4ncc(F)cn4)CC3)cc2)n1C ?
Return: top bin

Enquiry: Into which category would you place O=C(NC1CCCc2c1[nH]c1ccc(Cl)cc21)c1ccccn1 (stereo not given) ?
Return: middle bin

Enquiry: Into which category would you place Cc1ccn2c(C(=O)NCc3ccccc3)c(C)nc2c1 ?
Return: top bin

Enquiry: Into which category would you place O=C(O)C[C@H]1CC[C@H](c2ccc(-c3ccc(Nc4ccc(C(F)(F)F)nc4)cn3)cc2)CC1 ?
Return: middle bin

Enquiry: Into which category would you place COc1ccc2c(c1OC)C(=O)OC2C1c2c(cc3c(c2OC)OCO3)CCN1C (stereo not given) ?
Return: top bin

Enquiry: Into which category would you place COc1cc(C2C3=C(CC(C)(C)CC3=O)Nc3ccccc3N2C(C)=O)ccc1OCc1ccccc1 (stereo not given) ?
Return: bottom bin

Enquiry: Into which category would you place Clc1ccc(COC(Cn2ccnc2)c2ccc(Cl)cc2Cl)c(Cl)c1 (stereo not given) ?
Return: top bin

Enquiry: Into which category would you place COCCn1cnc2c(=O)[nH]c(Nc3ccccc3)nc21 ?
Return: top bin

Enquiry: Into which category would you place Cc1ncc([N+](=O)[O-])n1CC(O)CN1CCOCC1 (stereo not given) ?
Return: top bin

Enquiry: Into which category would you place Nc1nc(C(F)(F)F)cc2c1[nH]c(=O)n2Cc1ccccc1 ?
Return: middle bin

* * *

- Tested on: CHO
- Protocol: % viability of CHO cells (MTT); higher = less toxic
- Setup conditions: 2 µM; 48 h
Parameter measured: % viability of CHO cells (%)
Number only, in %; omit the unit.

Enquiry: Could you share which % viability of CHO cells value was measured for c1ccc(-c2nnc3c4ccccc4c(N4CCNCC4)nn23)cc1 ?
Return: 101

Enquiry: Could you share which % viability of CHO cells value was measured for O=C(Nc1[nH]c(=O)ncc1F)c1ccccc1 ?
Return: 103

Enquiry: Could you share which % viability of CHO cells value was measured for Cc1ccc(N2CCC(CCOc3ccc(S(C)(=O)=O)cc3)CC2)nn1 ?
Return: 89.6

Enquiry: Could you share which % viability of CHO cells value was measured for Cc1ccn2c(C(=O)NCc3ccccc3)c(C)nc2c1 ?
Return: 276

Enquiry: Could you share which % viability of CHO cells value was measured for O=C(N[C@H](CCS)C(=O)N[C@H](Cc1ccccc1)C(=O)O)c1cc2ccccc2[nH]1 ?
Return: 78.3

Enquiry: Could you share which % viability of CHO cells value was measured for CC(C)Oc1ccc(-c2nc(-c3cccc4c3CC[C@@H]4NCCO)no2)cc1C#N ?
Return: 113

Enquiry: Could you share which % viability of CHO cells value was measured for CN(C)CCCNC(=O)c1ccc(-c2cc(O)c3ncccc3c2)cc1 ?
Return: 115

Enquiry: Could you share which % viability of CHO cells value was measured for C=C(C)[C@@H]1CC[C@]2(C(=O)O)CC[C@]3(C)[C@H](CC[C@@H]4[C@@]5(C)CC[C@H](O)C(C)(C)[C@@H]5CC[C@]43C)[C@@H]12 ?
Return: 98.8

* * *

- Test system: Plasmodium falciparum NF54 stage IV/V gametocytes
- Protocol: % inhibition of gametocyte viability (PrestoBlue); higher = more inhibition
- Setup conditions: 1 µM; 48 h
Parameter measured: % inhibition of gametocyte viability (%)
Number only, in %; omit the unit.

Enquiry: Could you share which % inhibition of gametocyte viability value was measured for NC(=O)C(c1ccccc1)(c1ccccc1)[C@H]1CCCN(CCc2ccc3c(c2)CCO3)C1 ?
Return: 33.7

Enquiry: Could you share which % inhibition of gametocyte viability value was measured for NCc1ccc(S(N)(=O)=O)cc1 ?
Return: 7.26

Enquiry: Could you share which % inhibition of gametocyte viability value was measured for CCC(C)n1ncn(-c2ccc(N3CCN(c4ccc(OCC5COC(Cn6cncn6)(c6ccc(Cl)cc6Cl)O5)cc4)CC3)cc2)c1=O (stereo unspecified) ?
Return: 2.77

Enquiry: Could you share which % inhibition of gametocyte viability value was measured for NC1C2CC3CC(C2)CC1C3 (stereo unspecified) ?
Return: 21.5

Enquiry: Could you share which % inhibition of gametocyte viability value was measured for O=C(CP(=O)(O)O)NCCc1cccc(Oc2ccccc2)c1 ?
Return: 16.8

Enquiry: Could you share which % inhibition of gametocyte viability value was measured for C[Si]1(C)CCN(Cc2cc(-c3ccc(Cl)cc3)n(-c3ccc(Cl)cc3)n2)CC1 ?
Return: 28.8

Enquiry: Could you share which % inhibition of gametocyte viability value was measured for Cc1cc(NS(=O)(=O)c2ccc(-c3ccc(F)cc3F)cc2)no1 ?
Return: 2.55

Enquiry: Could you share which % inhibition of gametocyte viability value was measured for COc1cc(Cc2cnc(N)nc2N)cc(OC)c1OC ?
Return: 4.58

Enquiry: Could you share which % inhibition of gametocyte viability value was measured for C[C@H](Cn1cnc2c(N)ncnc21)OCP(=O)(O)O ?
Return: 10.5

* * *

- Tested on: Plasmodium falciparum NF54 stage IV/V gametocytes
- Protocol: % inhibition of gametocyte viability (PrestoBlue); higher = more inhibition
- Setup conditions: 1 µM; 48 h
Parameter measured: % inhibition of gametocyte viability (%)
Number only, in %; omit the unit.

Enquiry: Could you share which % inhibition of gametocyte viability value was measured for O=S(=O)(Nc1cccc2cccnc12)c1ccccc1 ?
Return: 4.79

Enquiry: Could you share which % inhibition of gametocyte viability value was measured for FC(F)(F)Oc1ccc(Nc2ccc3cccc(Cl)c3n2)cc1 ?
Return: 16.2

Enquiry: Could you share which % inhibition of gametocyte viability value was measured for CC1(C)CC(NC(=O)C(=O)Nc2ccc(Cl)cc2)CC(C)(C)N1 ?
Return: 22.5

Enquiry: Could you share which % inhibition of gametocyte viability value was measured for O=c1cc(OCc2ccccc2)ccn1Cc1ccccc1 ?
Return: 14.1

Enquiry: Could you share which % inhibition of gametocyte viability value was measured for COc1cc(C(C(=O)NC2CCCCC2)N(C(=O)Cc2c[nH]c3ccccc23)c2ccc(C(C)C)cc2)cc(OC)c1OC (stereo not drawn) ?
Return: 18.7
